From: ChEMBL document CHEMBL1201862

# Test system: MCF7
# test: NCI tumour cell line growth inhibition, 48 h
Calls of active or inactive are those of the source. Rule as the data show it: active = GI50 up to about 1.1 µM and inactive = higher.
Possible outcomes: TRUE = active, FALSE = inactive

compound	classification
O=c1cc2oc3ccc4ccccc4c3cc-2c(=O)[nH]1	FALSE
COc1ccc(C(=O)Nc2ccc(O)c(=O)cc2)cc1	FALSE
O/N=C1\CCc2cc3c(cc21)CCC3	FALSE
COC(=O)C1C(O)C(C)C(O)C(C)(O)/C=C\C=C(C)C(=O)Nc2c(C)c(OC(C)=O)c3c(c2O)C(=O)C(C)=C2OCOC(=C23)C(C)=CC(C)(O)C(O)C(C)C1OC(C)=O (configuration not stated)	FALSE
COc1ccc2nc3ccc(OC)cc3c(SCCO)c2c1	FALSE
CN(C)C(=O)C(F)(F)C(c1ccc(Br)cc1)C1C(=O)N(C)C(=O)N(C)C1=O (configuration not stated)	FALSE
COc1cc([C@@H]2c3cc4c(cc3[C@H](OC3OC5COC(C(C)C)OC5C(O)C3O)C3COC(=O)[C@@H]32)OCO4)cc(OC)c1O (some centres not stated)	FALSE
Cc1ccc2c(O)cc(-c3cccc4ccccc34)nc2n1	TRUE
CC(=O)O.CN1CCN(CN2C(=O)C3C4C=CC(C3C2=O)C2C3C(=O)N(CN5CCN(C)CC5)C(=O)C3C42)CC1 (configuration not stated)	FALSE
COc1cccc(N2C(=O)CSC2c2cccc(Oc3ccccc3)c2)c1 (configuration not stated)	FALSE
O=C(NNC(=S)Nc1ccc(Br)cc1)c1cc(-c2ccccc2)nc2ccccc12	FALSE
CN1CCOC1(C)c1ccccc1 (configuration not stated)	FALSE
Nc1nc(N)c2c(n1)CCC(S(=O)(=O)c1ccc3ccccc3c1)C2 (configuration not stated)	FALSE
C=C1CCCCCCCCC/C=C/1SCCCSC	FALSE
O=C(O)c1ccc(C(=O)O)c2c(C(=O)O)ccc(C(=O)O)c12	FALSE
CC#C[C@]1(O)CCC2[C@@H]3CCC4=CC(=O)CCC4=C3[C@@H](c3ccc(N(C)C)cc3)C[C@@]21C (some centres not stated)	FALSE
O=C(O)CCC(=O)c1ccc2c(c1)C(C(=O)O)CC2 (configuration not stated)	FALSE

###

# Test system: T47D
# test: NCI tumour cell line growth inhibition, 48 h
Calls of active or inactive are those of the source. No stated cut-off is given here; in the data, active = GI50 up to about 1.1 µM and inactive = higher.
Possible outcomes: active, inactive

compound	test_system	classification
Oc1nncc2[nH]c(-c3ccccc3)cc12	T47D	inactive
CN(C)c1nc2n(CCO)c(-c3ccccc3)c(-c3ccccc3)nc-2c(=O)n1	T47D	inactive
CC(C)(C)OC(=O)NC1CC=CCC1NC(=O)OC(C)(C)C (stereo unspecified)	T47D	inactive
CC(=O)OCC1OC(Oc2cc(C)c(O)cc2C/C=C(\C)CC/C=C(\C)CC(=O)CC(C)C)C(O)C(OC(C)=O)C1OC(C)=O (stereo unspecified)	T47D	inactive
CC1NC(/C(=C/c2ccccc2O)NC(=O)c2ccccc2)OC1=O (stereo unspecified)	T47D	inactive
COc1ccc(C2(CC(C)C)CCNC2)cc1OC (stereo unspecified)	T47D	inactive
CC(=O)Oc1ccc(C(c2ccc(OC(C)=O)cc2)c2ccccn2)cc1	T47D	active
O=C(/C=C(O)/C(=C/C(=O)c1ccccc1)NN=C(c1ccccc1)c1ccccc1)c1ccccc1	T47D	inactive
CC(C)(C)OC(=O)NCC(CNC(=O)OC(C)(C)C)C(N)=O	T47D	inactive
Brc1ccc(C2CC3(c4ccccc4)ON=C(c4ccccc4)N3c3ccccc3S2)cc1 (stereo unspecified)	T47D	inactive
CC(C)=C[C@@H]1C[C@H](n2cc(C)c(=O)[nH]c2=O)ON1CCO	T47D	inactive

###

Parameter GI50: see the listing below.
# System: RPMI-8226
# test: NCI tumour cell line growth inhibition, 48 h
Activity calls are given as the source filed them. Cut-off read from the data, not from the text of the source: active = GI50 up to about 1.1 µM and inactive = higher.

molecule	GI50
COc1ccc2c(c1)c1c(n2CCN(C)C)-c2ccccc2CC1	13.7 µM (inactive)
C[C@@H]1CC(=O)[C@@]2(C)[C@](O)(CCC3O[C@]32C)[C@@]12CC(c1ccoc1)OC2=O (stereo partly drawn)	33.3 µM (inactive)
C=CCCCn1ccc2ccccc21	> 100 µM (inactive)
CN1C(=O)CC(=O)N1/C(=C/c1ccccc1)c1ccccc1	37.1 µM (inactive)
COC(=O)/C(C#N)=C(\Nc1ccccc1)N1CCCC1	> 100 µM (inactive)
COc1ccc(NC(=O)c2cc(OC)cc(OC)c2)cc1	18 µM (inactive)
O=C1Nc2nc3ccccc3n2N=C2CCCC12 (stereo not drawn)	> 100 µM (inactive)
CCCCCCCCOCC(O)CO (stereo not drawn)	44.6 µM (inactive)
O=C1CCSC(=S)N1c1ccc(Br)c(Cl)c1	33.7 µM (inactive)
Clc1ccccc1C1SCc2nc3ccccc3n21 (stereo not drawn)	20 µM (inactive)
O=C(c1ccccc1)c1ccc(N2C(=O)/C(=C/Cc3ccco3)N=C2c2ccccc2)c(N2C(=O)/C(=C/Cc3ccco3)N=C2c2ccccc2)c1	27.8 µM (inactive)
COc1ccc(C(=O)Nc2ccc(O)c(=O)cc2)cc1	26.9 µM (inactive)
Cn1c(N)nc(-c2ccc(Cl)cc2)c1SSc1c(-c2ccc(Cl)cc2)nc(N)n1C	1.31 µM (inactive)
CC(NNC(=O)c1ccncc1)c1ccc(Cl)cc1Cl (stereo not drawn)	77.8 µM (inactive)
COc1ccc2c(c1)/C(=C\c1c(C)nc3n1CCS3)C(=O)N2	34.5 µM (inactive)
O=C(CC(=O)n1nc(-c2ccccc2)c(/N=N/c2ccc(Cl)cc2)c1-c1ccccc1)Nc1cccc(Cl)c1	65.6 µM (inactive)
CC12CCC(=O)[C@@]1(C)CCCC2O (stereo partly drawn)	> 100 µM (inactive)
CCCCCCCCCCCCCCCCOCC(CC(F)(F)P(=O)(O)O)OC(C)=O (stereo not drawn)	> 50 µM (inactive)
CCOC(=O)Cc1csc(N/N=C2\C(=O)Nc3ccccc32)n1	36.5 µM (inactive)
CN1C(=O)C(=CNc2ccccc2[N+](=O)[O-])C(=O)N(C)C1=O	> 100 µM (inactive)
CC(=O)OCC1OC(Oc2cc(C)c(O)cc2C/C=C(\C)CC/C=C(\C)CC(=O)CC(C)C)C(O)C(OC(C)=O)C1OC(C)=O (stereo not drawn)	9.16 µM (inactive)
C=CCn1c(-c2ccc(Cl)cc2Cl)cs/c1=N\c1c(C)n(C)n(-c2ccccc2)c1=O	7.19 µM (inactive)
O=C(O)CNC(=O)c1ccc([As](=O)(O)O)cc1	> 100 µM (inactive)

###

# System: NCI-H23
# test: NCI tumour cell line growth inhibition, 48 h
Calls of active or inactive are those of the source. Rule as the data show it: active = GI50 up to about 1.1 µM and inactive = higher.
Possible outcomes: active, inactive

compound	classification
O=c1c(Cl)c(Cl)cnn1CCc1ccncc1	inactive
COc1ccc(/C=C/c2nccc3ccccc23)cc1OC	inactive
CSc1nc2c(c(N(C)C)n1)C=Nn1c(nc3ccccc31)S2	inactive
Clc1ccccc1C1SCc2nc3ccccc3n21 (configuration not stated)	inactive
CC(C)c1cc2c(O)c(c1)Cc1cc(C(C)C)cc(c1O)Cc1cc(C(C)C)cc(c1O)Cc1cc(C(C)C)cc(c1O)C2	inactive
COc1cc(OC)c(-c2ccc(OCc3ccccc3)c3c(OC)cc(C)cc23)c2c1C(C)=N[C@H](C)C2	inactive
c1ccc([P+](c2ccccc2)(c2ccccc2)c2ccc(-c3ccc([P+](c4ccccc4)(c4ccccc4)c4ccccc4)cc3)cc2)cc1	inactive
C[n+]1ccc(-c2cc[n+](C)cc2)cc1 [PARAQUAT DICHLORIDE]	inactive
CC(C)(C)c1cc(C(O)(C(=O)O)C(=O)O)cc(C(C)(C)C)c1O	inactive
COc1ccc(/C=C2/C(=O)N(C(=O)c3ccc(Cl)cc3)N=C2C)cc1OC	inactive
O/N=C1\CCc2cc3c(cc21)CCC3	inactive
FC(F)=C(c1ccc(-c2ccc(Cl)cc2)cc1)C(F)(F)F	inactive
O=C(O)CNC(=O)c1ccc([As](=O)(O)O)cc1	inactive
Oc1cccc(-c2cccc(O)n2)n1	inactive
COC(=O)C(/C(=N/NC(N)=S)C(=O)Nc1ccccc1[N+](=O)[O-])c1cnc2ccccc2n1 (configuration not stated)	inactive
N=C1OC(CN2CCN(c3ccccc3)CC2)CN1C(=O)Nc1ccccc1 (configuration not stated)	inactive
O=C(NC(=O)c1ccccc1[N+](=O)[O-])Nc1ccc(Oc2ncc(Cl)cn2)c(C(F)(F)F)c1	active
CC(C)C(Cl)CCC(C)(Cl)C(=O)CBr (configuration not stated)	inactive
O=C(O)CCC(=O)c1ccc2c(c1)C(C(=O)O)CC2 (configuration not stated)	inactive
COc1ccc(C2(CC(C)C)CCNC2)cc1OC (configuration not stated)	inactive
COc1ccccc1C1Nn2c(nc3ccccc3c2=O)N1c1ccc(C)cc1 (configuration not stated)	inactive
CN(CCn1cnc2c1c(=O)n(C)c(=O)n2C)C1CCCCC1	inactive

###

# Tested on: M14
# test: NCI tumour cell line growth inhibition, 48 h
Active and inactive are the calls of the source. Cut-off read from the data, not from the text of the source: active = GI50 up to about 1.1 µM and inactive = higher.
Possible outcomes: class 1 for active, class 0 for inactive

compound	classification
CCCCCCCCCCCCCC(=O)OCC(CCS(=O)(=O)O[C@H]1CC[C@@]2(C)C(=CC[C@@H]3C2CC[C@]2(C)C(=O)CCC32)C1)OC(=O)CCCCCCCCCCCCC (stereo partly drawn)	class 0
COc1ccc2nc(NC(=O)C(=O)CC(=O)c3ccc(Cl)cc3)sc2c1	class 0
COC(=O)c1c2c(cc3c1CC1(C3)Cc3ccc4c(c3C1=O)CCC4)CCC2 (stereo not drawn)	class 0
CC(=O)C1=C(C)N2C(=NC3=C(CCc4ccccc43)C2c2cccc(Br)c2)S1 (stereo not drawn)	class 0
Cn1c(=O)n2n(c1=O)C1C(=CC2)C2C=CC1n1c(=O)n(C)c(=O)n12 (stereo not drawn)	class 0
COc1cc(C2c3cc4c(cc3OC(NNC(N)=S)C2C)OCO4)cc(OC)c1OC (stereo not drawn)	class 1
CC(C)(C)OC(=O)NC1CC=CCC1NC(=O)OC(C)(C)C (stereo not drawn)	class 0
COc1cccc(N2C(=O)CSC2c2cccc(Oc3ccccc3)c2)c1 (stereo not drawn)	class 0
COc1ccc(C2(CC(C)C)CCNC2)cc1OC (stereo not drawn)	class 0
O=C1CC2(c3ccccc3)ON=C(c3ccccc3)N2c2ccccc2N1 (stereo not drawn)	class 0
Cn1c2c(c3ccccc3c1=O)C(=O)c1ccccc1-2	class 0
C=CCCCCOC1C=CC(O)C(CO)O1 (stereo not drawn)	class 0
CN(C)CCn1c(CO)nc2c1c(=O)n(C)c(=O)n2C	class 0
COc1cccc(/N=C/c2cc3cc(Br)ccc3nc2Cl)c1	class 0
O=[N+]([O-])c1cccc2nc3ccccc3c(NCCCCNc3c4ccccc4nc4cccc([N+](=O)[O-])c34)c12	class 1
CCOC1OC(CO)C(O)CC1n1ccc(=O)[nH]c1=O (stereo not drawn)	class 0
CNC(=O)CNC(=O)C(Cc1ccc(NC(=O)CCCCC(C)=O)cc1)NC(=O)C(CCC(=O)OCc1ccccc1)NC(=O)OC(C)(C)C (stereo not drawn)	class 0
c1ccc([P+](c2ccccc2)(c2ccccc2)c2ccc(-c3ccc([P+](c4ccccc4)(c4ccccc4)c4ccccc4)cc3)cc2)cc1	class 0
COC(=O)C(/C(=N/NC(N)=S)C(=O)Nc1ccccc1[N+](=O)[O-])c1cnc2ccccc2n1 (stereo not drawn)	class 0
O=C(NC(=O)c1ccccc1[N+](=O)[O-])Nc1ccc(Oc2ncc(Cl)cn2)c(C(F)(F)F)c1	class 1
O=C(CC(O)(c1ccccc1)c1ccc(Cl)cc1)NC(=O)c1ccccc1O (stereo not drawn)	class 0
CCC(C)C(=O)OC1CC2(C)C(c3ccoc3)OC(=O)CC23OC2(C)OC34C(OC(=O)C(C)C)C3(O)C(OC(=O)C5(C)OC5C)C5(C)CC3(O)C(C)(C5CC(=O)OC)C14O2 (stereo not drawn)	class 0
CC(C)C(C/C=C1\CC(CO)(COC(=O)CC(C(C)C)C(C)C)OC1=O)C(C)C (stereo not drawn)	class 0
CSc1nc2c(c(N(C)C)n1)C=Nn1c(nc3ccccc31)S2	class 0
COC1=NN2C(OC)(c3ccccc3)c3c(-c4ccccc4)sc(-c4ccccc4)c3C2(c2ccccc2)S1 (stereo not drawn)	class 0
CC(C)C(C=O)C(O)(C(F)(F)F)C(F)(F)F (stereo not drawn)	class 0
CN(CCn1cnc2c1c(=O)n(C)c(=O)n2C)C1CCCCC1	class 0
COC(=O)c1ccccc1NC(=O)/C(=N\NC(C)(C)C)C(C#N)c1nc(-c2ccc([N+](=O)[O-])cc2)cs1 (stereo not drawn)	class 0
Cn1c(N)nc(-c2ccc(Cl)cc2)c1SSc1c(-c2ccc(Cl)cc2)nc(N)n1C	class 0
Cc1ccccc1N1C(N)=C(C#N)C(C#N)(C#N)C1c1ccccc1 (stereo not drawn)	class 0
O=P1(c2ccccc2)C(c2ccccc2)CCC1c1ccccc1 (stereo not drawn)	class 0
COc1cc([C@@H]2c3cc4c(cc3[C@@H](NC(=O)c3ccc(N)cc3)C3COC(=O)[C@@H]32)OCO4)cc(OC)c1O (stereo partly drawn)	class 0
CCOC(=O)C(NCc1cccc(C(F)(F)F)c1)(NC(=O)CC)C(F)(F)F (stereo not drawn)	class 0
O=C1c2ccccc2N2Oc3ccccc3C12c1ccccc1 (stereo not drawn)	class 0
COc1ccccc1C1Nn2c(nc3ccccc3c2=O)N1c1ccc(C)cc1 (stereo not drawn)	class 0
COc1cc(C2C(C(=O)O)=C(C)Oc3cc4c(cc32)OCO4)cc(OC)c1OC (stereo not drawn)	class 0
C/C(=N/NS(=O)(=O)c1ccccc1)c1cccc[n+]1[O-]	class 0
CN(C)c1ccc(/C=C(\NC(=O)c2ccccc2)C(=O)Nc2ccccc2C(=O)NN2C(=O)CSC2c2ccc(N(C)C)cc2)cc1 (stereo not drawn)	class 0
